Molecular target: hADORA1/CHO (hA1 expressing) cells (Homo sapiens (Human), UniProt P30542)
Sequence (P30542 whole entry): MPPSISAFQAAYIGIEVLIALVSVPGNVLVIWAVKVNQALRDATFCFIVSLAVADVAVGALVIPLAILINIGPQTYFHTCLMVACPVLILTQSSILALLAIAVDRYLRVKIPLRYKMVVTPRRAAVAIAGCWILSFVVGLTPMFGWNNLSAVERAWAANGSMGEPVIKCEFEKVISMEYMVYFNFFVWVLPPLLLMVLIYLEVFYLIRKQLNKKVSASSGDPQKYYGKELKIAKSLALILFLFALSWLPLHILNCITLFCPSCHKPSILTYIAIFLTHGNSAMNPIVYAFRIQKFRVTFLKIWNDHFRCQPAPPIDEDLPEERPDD
Assay: FLIPR calcium inhibition assay in hADORA1/CHO (hA1 expressing) cells, 10 M adenosine
Format: cell-based
Conditions: read-out: cAMP & FLIPR IC50 (nM) hA1
assay_metric: IC50

What does the data say about its IC50? Entry: Cc1cnc2ccc(-c3nc(C(=O)NCC4CCCCN4C)c(N)nc3-c3ncco3)cn12 (single isomer, unassigned; isomer 2)
10000 nM
